test system: HepG2 cells; experiment: Hepatocyte toxicity (CCK-8 cytotoxicity test); format: cell-based; conditions: Homo sapiens, 72 hours, read-out: hepatotoxicity (IC50)
readout-name: pIC50
Would you please state pIC50, meaning minus log10 of the concentration in mol/L, as a bare number?

Task: Field: pIC50 (HepG2 cells). Entry: CNCC[C@H](Oc1cccc2ccccc12)c1cccs1
Result: 4.48

====

target: TRPA1 (Mus musculus, UniProt Q8BLA8); construct: expressed in transfected cells; host or cells: HEK293 cells stably expressing TRPA1; assay: TRPA1 inhibitory activity, IonWorks Barracuda (IWB) automatic patch clamp detection; assay type: cell-based; details: HEK293 cells stably expressing TRPA1, AITC-induced current; read-out: IC50(μM) against TRPA1 in automatic patch clamp detection
Sequence (Q8BLA8 whole entry): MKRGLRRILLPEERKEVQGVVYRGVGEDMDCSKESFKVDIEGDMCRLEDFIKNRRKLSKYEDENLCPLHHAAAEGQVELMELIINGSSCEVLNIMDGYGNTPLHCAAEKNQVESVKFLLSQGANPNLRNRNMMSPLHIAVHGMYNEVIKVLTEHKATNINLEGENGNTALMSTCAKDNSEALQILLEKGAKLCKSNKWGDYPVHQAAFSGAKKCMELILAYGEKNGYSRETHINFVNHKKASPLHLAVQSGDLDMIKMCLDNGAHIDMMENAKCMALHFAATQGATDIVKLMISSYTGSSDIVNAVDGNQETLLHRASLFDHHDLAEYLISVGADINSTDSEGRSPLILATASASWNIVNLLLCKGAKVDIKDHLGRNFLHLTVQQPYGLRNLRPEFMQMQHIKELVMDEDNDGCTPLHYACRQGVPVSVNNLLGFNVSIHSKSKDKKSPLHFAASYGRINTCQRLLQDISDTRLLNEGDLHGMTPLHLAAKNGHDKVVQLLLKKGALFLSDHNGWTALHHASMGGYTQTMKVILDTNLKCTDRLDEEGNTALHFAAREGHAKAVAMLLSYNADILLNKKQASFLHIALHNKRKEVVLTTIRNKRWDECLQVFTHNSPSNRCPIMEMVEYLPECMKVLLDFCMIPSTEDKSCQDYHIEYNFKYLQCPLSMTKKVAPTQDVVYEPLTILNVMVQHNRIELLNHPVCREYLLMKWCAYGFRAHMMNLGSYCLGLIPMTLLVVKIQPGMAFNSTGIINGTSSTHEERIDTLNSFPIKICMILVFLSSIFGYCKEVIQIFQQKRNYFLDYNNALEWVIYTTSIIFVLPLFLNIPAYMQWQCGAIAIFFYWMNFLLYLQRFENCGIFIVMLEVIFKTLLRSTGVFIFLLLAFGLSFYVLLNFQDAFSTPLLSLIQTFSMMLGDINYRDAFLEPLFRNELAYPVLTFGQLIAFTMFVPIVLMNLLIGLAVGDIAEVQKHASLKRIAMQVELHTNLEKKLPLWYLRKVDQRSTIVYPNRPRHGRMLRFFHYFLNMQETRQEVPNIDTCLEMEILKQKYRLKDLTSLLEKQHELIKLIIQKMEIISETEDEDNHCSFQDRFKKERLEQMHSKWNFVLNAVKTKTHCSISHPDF
readout-name: IC50

Task: // fetch TRPA1 (Mus musculus, UniProt Q8BLA8) IC50 for CNCC[C@@H](Oc1cccc2ccccc12)c1cccs1
Result: 21 to 50 µM
